Biological target: Bcl-2-related protein A1 (Homo sapiens)
Sequence (Q16548 whole entry): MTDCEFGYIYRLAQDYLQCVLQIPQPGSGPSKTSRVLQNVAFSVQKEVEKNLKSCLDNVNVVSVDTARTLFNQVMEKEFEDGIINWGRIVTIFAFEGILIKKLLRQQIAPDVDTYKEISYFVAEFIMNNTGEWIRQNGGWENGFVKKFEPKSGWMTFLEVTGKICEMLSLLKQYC
What pIC50 was measured for each of the following?
One number for each entry, as −log10 of the molar value.

Take a look at these entries with their results.
CC1=C(C2=C(C)C(=O)c3c(cc(O)c(O)c3CCCc3ccccc3)C2=O)C(=O)c2cc(O)c(O)c(CCCc3ccccc3)c2C1=O :: 5.28
CC1=C(C2=C(C)C(=O)c3c(cc(O)c(O)c3Cc3ccccc3)C2=O)C(=O)c2cc(O)c(O)c(Cc3ccccc3)c2C1=O :: 6.19
CC1=C(C2=C(C)C(=O)c3c(cc(O)c(O)c3CCc3ccccc3)C2=O)C(=O)c2cc(O)c(O)c(CCc3ccccc3)c2C1=O :: 5.01

Let's switch to this compound now.
Lookup: Given CCc1ccc(CCNC(=O)c2c(O)c(O)cc3c2C(=O)C(C)=C(C2=C(C)C(=O)c4c(cc(O)c(O)c4C(=O)NCCc4ccc(CC)cc4)C2=O)C3=O)cc1 , state its recorded pIC50.
Found: 5.90
